Sourced from paper PMC8733726

# protocol-text: in vitro
# measurement-parameters: human, plasma
measure-name: half-life at 1 μM (h)
Report only the number, with the unit h understood.

Returns the measured half-life at 1 μM for the input compound. Input: CCCCCCCC(=O)NC(CCCNC(=N)N)CC(=O)NCCCN(CCCNC(=O)CC(CCCNC(=N)N)NC(=O)CCCCCCC)CC(=O)NC(CCCNC(=N)N)CC(N)=O (stereo not shown) 10.4

---

Field: MIC. Provide a value for each of the molecules that follow.
# Test system: MDR K. pneumoniae clinical isolates
# protocol-text: Resistance phenotype (MICs of antibiotics) of MDR clinical isolates
# Type: cell-based, Klebsiella pneumoniae
# measurement-parameters: Klebsiella pneumoniae, 116381; read-out: MIC
Give the value, in units of µg/mL, as a plain number.

Any idea what its MIC is? The molecule is CN(C)c1cc(NC(=O)CNC(C)(C)C)c(O)c2c1C[C@H]1C[C@H]3[C@H](N(C)C)C(O)=C(C(N)=O)C(=O)[C@@]3(O)C(O)=C1C2=O 1

Record request: MIC value, item C[C@H]1[C@H](NC(=O)/C(=N\OC(C)(C)C(=O)O)c2csc(N)n2)C(=O)N1S(=O)(=O)O 16

Look up MIC: C[C@@H](O)[C@H]1C(=O)N2C(C(=O)O)=C(S[C@@H]3CN[C@H](C(=O)Nc4cccc(C(=O)O)c4)C3)[C@H](C)[C@H]12 0.12

Given the molecule C[C@@H](O)[C@H]1C(=O)N2C(C(=O)O)=C(SCCN=CN)C[C@H]12 , what is its reported MIC? 0.5

Param item = CO[C@@]1(NC(=O)Cc2cccs2)C(=O)N2C(C(=O)O)=C(COC(N)=O)CS[C@@H]21 ; retrieve measured MIC. 16

---

# System: MDR P. aeruginosa clinical isolates
# protocol-text: Resistance phenotype (MICs of antibiotics) of MDR clinical isolates
# Type: cell-based, Pseudomonas aeruginosa
# measurement-parameters: Pseudomonas aeruginosa, 259-96196; read-out: MIC
measure-name: MIC (µg/mL)
Return type: number; implicit unit µg/mL.

Form field: reported MIC of C[C@@H](O)[C@H]1C(=O)N2C(C(=O)O)=C(S[C@@H]3CN[C@H](C(=O)N(C)C)C3)[C@H](C)[C@H]12 1020

Endpoint output: MIC of CN(C)c1ccc(O)c2c1C[C@H]1C[C@H]3[C@H](N(C)C)C(O)=C(C(N)=O)C(=O)[C@@]3(O)C(O)=C1C2=O . Value? 32

Query (molecule): CN(C)[C@@H]1C(O)=C(C(N)=O)C(=O)[C@@]2(O)C(O)=C3C(=O)c4c(O)c(NC(=O)CN5CCCC5)cc(F)c4C[C@H]3C[C@@H]12 ; field requested: MIC 8

# get_value(readout='MIC', item= C[C@H]1COc2c(N3CCN(C)CC3)c(F)cc3c(=O)c(C(=O)O)cn1c23 ) 256

Item under review: C[C@@H](O)[C@H]1C(=O)N2C(C(=O)O)=C(SCCN=CN)C[C@H]12 . Reported MIC? 32

Consider the molecule shown here: CO/N=C(\C(=O)N[C@@H]1C(=O)N2C(C(=O)O)=C(COC(C)=O)CS[C@H]12)c1csc(N)n1 What is its recorded MIC? 2050

---

Could you please report measured MIC for the items listed next?
# Tested on: MDR P. aeruginosa clinical isolates
# protocol-text: Resistance phenotype (MICs of antibiotics) of MDR clinical isolates
# Format: cell-based, Pseudomonas aeruginosa
# measurement-parameters: Pseudomonas aeruginosa, 259-96196; read-out: MIC

Notebook entry, MDR P. aeruginosa clinical isolates assay: MIC of Cc1nnc(SCC2=C(C(=O)O)N3C(=O)[C@@H](NC(=O)Cn4cnnn4)[C@H]3SC2)s1 = ? > 128 µg/mL

# query: MIC | item NCC[C@H](O)C(=O)N[C@@H]1C[C@H](N)[C@@H](O[C@H]2O[C@H](CN)[C@@H](O)[C@H](O)[C@H]2O)[C@H](O)[C@H]1O[C@H]1O[C@H](CO)[C@@H](O)[C@H](N)[C@H]1O | system: MDR P. aeruginosa clinical isolates > 64 µg/mL

Lab request: please report MIC under test system MDR P. aeruginosa clinical isolates for CO/N=C(\C(=O)N[C@@H]1C(=O)N2C(C(=O)[O-])=C(C[N+]3(C)CCCC3)CS[C@H]12)c1csc(N)n1 [CPM, cefepime] > 64 µg/mL

What reported MIC corresponds to C[C@@H](O)[C@H]1C(=O)N2C(C(=O)O)=C(S[C@@H]3CN[C@H](CNS(N)(=O)=O)C3)[C@H](C)[C@H]12 on MDR P. aeruginosa clinical isolates? > 1020 µg/mL
